# System: DIV30
# ASSAY SUMMARY: qHTS profiling for inhibitors of Plasmodium falciparum proliferation (AID 504749); note: nearly all actives have a fitted effect of over 60% in size
# EXPERIMENTAL SETUP: P. falciparum in erythrocytes, SYBR Green DNA, 72 h; series mostly up to 12.8 µM
Records with an inconclusive call do not appear. Activity calls are given as the source filed them. Calls come from the whole dose curve; as a rule, active = well fitted inhibition curve with a large enough effect; inconclusive = small, poorly fitted or top-dose-only effect; inactive = flat fitted curve, though single readings scatter.
Possible outcomes: 1 = active, 0 = inactive

{"COMPOUND": "CO[C@]1(NC(=O)C2SC(=C(C(N)=O)C(=O)O)S2)C(=O)N2C(C(=O)O)=C(CSc3nnnn3C)CS[C@H]21 (some centres not stated)", "CLASS LABEL": 0}
{"COMPOUND": "CC1(C)OC2CC(=O)OC[C@@]23C1CC(=O)[C@]1(C)C3CC[C@@]2(C)C(c3ccoc3)OC(=O)C3O[C@@]321 (some centres not stated)", "CLASS LABEL": 0}
{"COMPOUND": "CC(=O)O[C@]1(C(C)=O)CC[C@@H]2[C@@H]3C=C(C)C4=CC(=O)CC[C@@]4(C)[C@H]3CC[C@]21C", "CLASS LABEL": 0}
{"COMPOUND": "CCc1c(C)[nH]c2c1C(=O)[C@H](CN1CCOCC1)CC2", "CLASS LABEL": 0}
{"COMPOUND": "CC1(C)S[C@@H]2[C@H](NC(=O)[C@@H](N)c3ccccc3)C(=O)N2[C@H]1C(=O)O[C@H]1OC(=O)c2ccccc21", "CLASS LABEL": 0}
{"COMPOUND": "C[C@]12C=CC(=O)C=C1CCC1C2C(O)C[C@]2(C)C1CC[C@]2(O)C(=O)CO (some centres not stated)", "CLASS LABEL": 0}
{"COMPOUND": "CC1(C)O[C@H]2C[C@@H]3[C@H]4CCC5=CC(=O)CC[C@@]5(C)[C@]4(F)[C@@H](O)C[C@@]3(C)[C@@]2(C(=O)CCl)O1", "CLASS LABEL": 1}
{"COMPOUND": "O=C(N/N=C\\c1ccc([N+](=O)[O-])o1)c1ccc(O)cc1", "CLASS LABEL": 1}
{"COMPOUND": "COCC(=O)Nc1c(I)c(C(=O)NC[C@@H](O)CO)c(I)c(C(=O)N(C)C[C@@H](O)CO)c1I", "CLASS LABEL": 0}
{"COMPOUND": "CC[C@H](Cc1c(I)cc(I)c(N)c1I)C(=O)O", "CLASS LABEL": 0}
{"COMPOUND": "CCCC(=O)O[C@]1(C(=O)CO)CCC2[C@@H]3CCC4=CC(=O)CC[C@]4(C)C3C(O)C[C@]21C (some centres not stated)", "CLASS LABEL": 0}
{"COMPOUND": "COc1cc2nc(N3CCN(C(=O)[C@@H]4CCCO4)CC3)nc(N)c2cc1OC", "CLASS LABEL": 0}
{"COMPOUND": "COc1ccc(-c2cc(=O)c3c(O)cc(O[C@H]4OC(COC5OC(C)C(O)C(O)[C@H]5O)C(O)C(O)C4O)cc3o2)cc1O (some centres not stated)", "CLASS LABEL": 0}
{"COMPOUND": "CN[C@H]1[C@H](O)[C@@H](O[C@@H]2[C@H](O)[C@@H](O[C@H]3OC(CN)=CC[C@H]3N)[C@@H](N)C[C@H]2N)OC[C@@]1(C)O", "CLASS LABEL": 0}
{"COMPOUND": "CCN[C@@H]1CN(CCCOC)S(=O)(=O)c2sc(S(N)(=O)=O)cc21", "CLASS LABEL": 0}
{"COMPOUND": "C[C@@H]1C[C@H]2[C@@H]3C[C@H](F)C4=CC(=O)C=C[C@@]4(C)[C@]3(F)[C@H](O)C[C@]2(C)[C@@]1(O)C(=O)CO", "CLASS LABEL": 0}
{"COMPOUND": "CCCC[C@H](CC)CN1CN(C[C@@H](CC)CCCC)CC(C)(N)C1", "CLASS LABEL": 0}
